Test system: TSCs differentiating towards STBs
Test: RT-qPCR of aging-related marker genes during TSC-STB differentiation
Format: cell-based, human
Settings: 10 μM; FIG. 4H
READOUT_TYPE: CGA expression

O=c1c(O)c(-c2ccc(O)c(O)c2)oc2cc(O)cc(O)c12 = decrease
NCCCCNCCCN = decrease
O=c1c(O)c(-c2ccc(O)c(O)c2)oc2cc(O)ccc12 = increasing
NC(=O)c1ccc[n+]([C@@H]2O[C@H](COP(=O)([O-])O)[C@@H](O)[C@H]2O)c1 [NMN, Nicotinamide mononucleotide] = increasing

====

Tested on: TSCs differentiating towards STBs
Test: RT-qPCR of aging-related marker genes during TSC-STB differentiation
Assay type: cell-based, human
Conditions: 1 μM; FIG. 4H
READOUT_TYPE: CGA expression

O=c1c(O)c(-c2ccc(O)c(O)c2)oc2cc(O)ccc12 = reduced
O=c1c(O)c(-c2ccc(O)c(O)c2)oc2cc(O)cc(O)c12 = decrease
NCCCCNCCCN = decrease
NC(=O)c1ccc[n+]([C@@H]2O[C@H](COP(=O)([O-])O)[C@@H](O)[C@H]2O)c1 [NMN, Nicotinamide mononucleotide] = reduced
